Method: terephthalic acid (TPA) released, HPLC; higher = more TPA released; extreme values may be limits of the assay
Measurement Context: PET substrate: cryPow; 60 °C; pH 8.5; 24 h
Quantity Name: terephthalic acid (mM)
Numbers only, in mM.

Guide cases for terephthalic acid, answers given:
• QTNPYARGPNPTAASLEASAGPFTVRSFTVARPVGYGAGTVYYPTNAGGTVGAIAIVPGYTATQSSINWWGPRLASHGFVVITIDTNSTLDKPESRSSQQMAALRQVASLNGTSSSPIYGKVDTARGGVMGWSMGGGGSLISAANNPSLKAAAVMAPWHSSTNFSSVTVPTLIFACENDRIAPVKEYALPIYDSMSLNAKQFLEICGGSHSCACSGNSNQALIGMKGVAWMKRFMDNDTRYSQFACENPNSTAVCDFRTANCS [HotPETase] = 0.211
• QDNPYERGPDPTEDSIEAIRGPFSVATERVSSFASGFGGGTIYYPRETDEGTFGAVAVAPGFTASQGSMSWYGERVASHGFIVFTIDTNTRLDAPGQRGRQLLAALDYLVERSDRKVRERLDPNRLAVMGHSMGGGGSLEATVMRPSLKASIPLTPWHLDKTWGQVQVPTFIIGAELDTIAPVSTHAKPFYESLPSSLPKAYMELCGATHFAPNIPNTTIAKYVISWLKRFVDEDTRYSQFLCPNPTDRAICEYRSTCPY [Cut190*SS] = 0.04

Would you kindly look at the next entry?
Lab note: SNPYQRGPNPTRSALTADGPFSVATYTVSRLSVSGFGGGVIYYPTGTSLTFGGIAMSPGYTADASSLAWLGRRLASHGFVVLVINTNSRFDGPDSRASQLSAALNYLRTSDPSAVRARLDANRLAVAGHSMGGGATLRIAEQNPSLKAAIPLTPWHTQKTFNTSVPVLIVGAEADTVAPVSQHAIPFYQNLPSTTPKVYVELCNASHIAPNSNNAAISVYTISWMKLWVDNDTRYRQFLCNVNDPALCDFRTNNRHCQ [LCC-ICCG DAQI] gave terephthalic acid of 0.103

====

Kindly state log10 of MHET released for each of the entries shown.
Method: MHET released, HPLC; higher = more MHET released; extreme values may be limits of the assay
Measurement Context: PET substrate: cryPow; 60 °C; pH 6.5; 24 h
On a log10 scale: recorded MHET released, unit mM.

Guide cases for log10 of MHET released, answers given:
* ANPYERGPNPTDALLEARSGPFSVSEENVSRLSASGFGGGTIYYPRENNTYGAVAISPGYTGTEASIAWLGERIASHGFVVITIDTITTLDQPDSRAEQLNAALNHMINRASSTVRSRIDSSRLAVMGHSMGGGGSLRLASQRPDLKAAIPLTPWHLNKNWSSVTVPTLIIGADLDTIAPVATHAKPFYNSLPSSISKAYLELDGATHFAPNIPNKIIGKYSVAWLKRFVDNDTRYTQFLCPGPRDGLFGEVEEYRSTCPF [TfCut2] | -1.65
* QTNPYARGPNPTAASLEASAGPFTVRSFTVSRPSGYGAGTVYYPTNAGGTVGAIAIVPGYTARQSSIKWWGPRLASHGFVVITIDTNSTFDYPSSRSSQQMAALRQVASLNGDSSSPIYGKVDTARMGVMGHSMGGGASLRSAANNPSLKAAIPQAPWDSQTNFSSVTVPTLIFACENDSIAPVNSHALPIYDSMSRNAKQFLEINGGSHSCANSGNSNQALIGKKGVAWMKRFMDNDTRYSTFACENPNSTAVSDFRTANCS [DuraPETase] | -1.36
* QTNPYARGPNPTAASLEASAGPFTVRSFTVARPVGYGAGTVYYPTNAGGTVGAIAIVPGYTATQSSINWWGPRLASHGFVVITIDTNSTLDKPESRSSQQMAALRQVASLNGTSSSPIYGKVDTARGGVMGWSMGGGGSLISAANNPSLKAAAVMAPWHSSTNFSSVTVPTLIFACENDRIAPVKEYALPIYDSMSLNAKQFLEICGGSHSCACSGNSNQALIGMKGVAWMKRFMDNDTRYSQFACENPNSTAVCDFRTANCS [HotPETase] | -0.28
* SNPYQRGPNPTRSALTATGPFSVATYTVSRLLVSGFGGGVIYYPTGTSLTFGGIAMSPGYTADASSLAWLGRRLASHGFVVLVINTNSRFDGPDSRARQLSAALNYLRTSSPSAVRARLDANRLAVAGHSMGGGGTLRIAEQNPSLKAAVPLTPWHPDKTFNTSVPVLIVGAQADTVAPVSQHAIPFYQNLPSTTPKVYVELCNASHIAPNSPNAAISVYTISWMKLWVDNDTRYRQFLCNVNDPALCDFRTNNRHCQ [LCC-ICCG I6M] | -0.66

Hi team, please reply with log10 of MHET released for each item in this list.
1. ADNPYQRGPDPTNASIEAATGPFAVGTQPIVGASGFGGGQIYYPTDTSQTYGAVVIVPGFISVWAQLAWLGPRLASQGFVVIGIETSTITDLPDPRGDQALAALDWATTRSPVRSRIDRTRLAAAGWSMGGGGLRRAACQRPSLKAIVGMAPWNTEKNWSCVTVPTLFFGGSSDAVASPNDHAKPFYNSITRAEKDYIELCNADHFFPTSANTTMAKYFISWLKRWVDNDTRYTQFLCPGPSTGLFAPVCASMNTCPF [CaPETaseM9]
2. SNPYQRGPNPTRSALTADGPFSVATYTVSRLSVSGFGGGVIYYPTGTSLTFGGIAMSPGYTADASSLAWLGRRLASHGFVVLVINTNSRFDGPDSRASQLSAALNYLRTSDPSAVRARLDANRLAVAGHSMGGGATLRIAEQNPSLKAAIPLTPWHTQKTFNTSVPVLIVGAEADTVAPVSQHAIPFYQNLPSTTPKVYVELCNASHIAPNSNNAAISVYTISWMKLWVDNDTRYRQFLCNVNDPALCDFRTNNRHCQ [LCC-ICCG DAQI]

-0.99
-0.60
